protocol: soluble fraction after stress (log2 fold change); higher = more stays soluble; pooled small domains, quantitative proteomics;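 further: 20 min heating vs room temperature control held 20 min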
measurement_setup: stress: 75 degC
Examples of sequences with documented soluble fraction (log2) follow.
Answer as a number with no unit attached.

Solved cases (7 shown):
| sequence_text | soluble fraction (log2) |
| --- | --- |
| HMFDTVTIGRKIAELRKAHNMTQFELADALGISFQAVSNWERGASMPDISKLPELAEIFGVTIDEVLGK | -1.5 |
| HMQKPIKPVKMHTVGPKENLSSIGRMYEVNGRVLANYNNIDYDKGLTIGQVLKIPPKGTTLEQVT | 0.853 |
| HMLPIMDRLITAGISINTAKKWVDKFGDKRIKQNLAYSLAKQKEGKVKTNFVGYLAKAIEEDWGSGWE | -1.5 |
| HMAASEAESIRILLSEGVDRVHLRKPQSAEADMRRLIEALPPELYPRLTLQDHLHLAGEYGT | -0.0361 |
| HMKNYYELLGVAREASQDQIKKAYRKLARKYHPDVSKEADAETRMQELNVAYDTLSDAEKKREYDFQLDHP | 0.0883 |
| HMHKAVVGPPNARKLAVTYGFKRWPALVFFRDGKYLGAVDGLRLWADLVREADEIMHSEPHYP | 0.0613 |
| HMVGMDRYFKIKNIKDSSAAFERDYILHFLKENDWMVSKTAQMIGLERTTLYKKIKQLGLASMLEN | -3.24 |

API: the following record is the query input.
## Input Report soluble fraction (log2), nothing else, for this sequence: HMKNIRKQAIEAIDRIKNGNPIVISKNAKLIFKNIAKEANVSPTELHREFRDVMLYVNSLKAP
## Output -0.346

====

Reported values of soluble fraction (log2) for individual entries
protocol: soluble fraction after stress (log2 fold change); higher = more stays soluble; pooled small domains, quantitative proteomics
measurement_setup: stress: 75 degC
Please reply with the number alone, leaving off any unit.

As a guide, the following entries are already answered.
| sequence_text | soluble fraction (log2) |
| --- | --- |
| HMGAARRFEMSEGGSQKFWEVAVEGPALTVRFGKLGTAGTTQTKTLASAEAAAKEADKLVREKTKKGYAP | -0.199 |
| HMDGYVPAERIASEVGVSARTITREMHGLEMTLMPYGIALLRRTGAGFMLAGTAKALADLRKHMTEDADTQ | 0.134 |
| HMDRSLYVGDAVGFDSARGLMEIEVKNKFSVVAVSLKKKPSGNFITPLLRMEKKKGEAVTVAPGSGHR | -0.514 |
| HMSSDLDQYMKNIRKQHNLSKREFAKQLGISAATIVRIENGITVSPSKNLISKLAYYLQKSEVEILQDIQS | -1.16 |
| HMLHQSLVVNAASGRVTVSLDIVPDEDNPYAVLRATDDSDEPLAQVRVAPSFKLNRASALAWIESQFARP | -2.34 |
| HMKNIINLVIDGELHGKRIDAVIAQKNDSLSRTRIKNLVINGNLSINDEIVSDPSKKIYKDDKVSLTIPLP | -0.322 |
| HMVMSTDAELILEYLAKHQGEMEITDKSSPELIMDTFNMSKGAFKRALGSLYKSKTVVIESTKVLLNT | -1.44 |
| HMDYVKTLGETINVRVAASTDADIYKLLPGGEILNRVGYNEEWTKVMVDGSTFYVYSEYVIQTEPPA | -1.32 |
| HMLKEGIKEKINQLQVYADKNDNIIWYDRVVDILSDKDDSVTDEMIEAAIRTLEEAGISVERKQ | 0.0727 |
| HMENVMLRNFAIQATEAGVIKLLEDQRTFVWGSNNKKFMTVPFDEHPYSAMAAFFKTDEGLEIYKSIEKKF | -1.97 |

## Input Please list soluble fraction (log2) recorded for the sequence HMALSTRERMSFVLEVLKEKEFIPFVDLFSPEEGRAGVVVTFLALMELMKDSLIEIVQTKNFGEIHVRARL
## Output -0.316

## Input Name the recorded soluble fraction (log2) of the item HMRDDAIQQGREIVERELHRLDLAYTTLTDVLAKLEYEKLDDLYAAVGFGIRSPHSVAAAALQVERDKA in your answer.
## Output -0.322

## Input Give the value of soluble fraction (log2) reported for the following: HMDVLTARENEVLQLLAKGMSNKEIASVLVITEKTVKAHVSSILSKLNLSDRTQAALYAVKNGI
## Output -0.763

## Input Note down soluble fraction (log2) recorded for HMIDENILSEEIKHYIETNNYAKDDKLPSERSLASLFNVSRALVRKSLISLVDVNYLYVKDKSGYYING
## Output -0.0579

## Input Please look at this sequence and report its soluble fraction (log2): HMAPNKLQQQEVWTKALPLLQQMIMTIRQIDAAGGDSSPERELLEETAARFDETLDVERFLP
## Output -0.339

## Input Please give the documented soluble fraction (log2) of HMKDIIVDPQGQYNHPGVPTRIPSSDITMKGVGYPVLGIADNGQKQMMQPGQDYKFPGAKYVDEYPQM
## Output 0.185

## Input In one line, give reported soluble fraction (log2) of the entry HMVKIIHYEVYANRGDGWKLVDQFSADQRQEAVNLAKEIETEDQVAVKIIREIFDVQDNTYQESVEYIG .
## Output -1.59

====

protocol: soluble fraction after stress (log2 fold change); higher = more stays soluble; pooled small domains, quantitative proteomics
measurement_setup: stress: 75 degC
Overview of recorded soluble fraction (log2) for various sequences
Please give the numeric answer without any surrounding text.

Observe how each entry below is paired with its result.
| sequence_text | soluble fraction (log2) |
| --- | --- |
| HMNQSYQLWIKDDELGPTPRSVGVLNEHFEVDPAALTNYDAELLRRATFGISLEPRGGSPTGQP | -0.192 |
| HMRININNASARQIADALPGVGLKTARDIKDFQTTLSGERYTRLDQLHSIKRVDWDEIFKADLVRV | -0.0802 |

## Input Read off the recorded soluble fraction (log2) for HMSSRSLSYSDFIERVDAGQVSKVVMDGERLVVVGQDGTSYVTIKPPGDQVTENLSRELISKGVEVEAEPQ
## Output -0.0305

## Input For HMEWLENIKKLKKEKGLTNESLSEKSGISVGTLNKLLSGATTDPKLSTLRPLADALEVSLDELLAI , write its soluble fraction (log2).
## Output -0.0723

## Input Respond only with soluble fraction (log2) recorded for HMTKTFDSPEDADNDVLAKTLFQIFGVQSVYLKENFVTITKSNSVGWHTLMEKTGHTLEEHLKF
## Output 0.0905

## Input Query soluble fraction (log2) for HMVRTIKILGIKHNINLYYKNVKVPTMNVKNQTLEIILPNKYKKFQEEQILKVLTQKLYDKIAETEIEKIK
## Output -1.11

## Input For HMARTDVKLREVAQELLRMGLLEESLRPHLYRTALASMERLNATLEPLDLIARADEIRGLVFLAVRH , write its soluble fraction (log2).
## Output -2.73

## Input Note soluble fraction (log2) for the sequence shown: HMDKVSYALGLGIGRQLTDMGAKDLNIDDFAQAIKDVLAGGEVKLSDAEAQTIVRNFFDEQEKKQRA
## Output -0.029

====

protocol: soluble fraction after stress (log2 fold change); higher = more stays soluble; pooled small domains, quantitative proteomics
measurement_setup: stress: 75 degC
# binarize soluble fraction (log2): threshold -0.3 inclusive, high side rule met, low side rule not met

Example entries begin here.
| sequence_text | assigned_class |
| --- | --- |
| HMLTDAAAVKRSVRNLVQYGFYEKPFHPEIGSGVRDLLFENMTPFVANNLSKQIEEIITNYEPRA | rule not met |
| HMVFADRLRALRKKSGLTQDEFSKQTGIGRSAVGMYESGKREPNYTTLSKVARFYHVSTDYLLGRTDTP | rule not met |
| HMLSAEAAAARTAISTLSEDQQRVLGLSIQRGLVHEQIARATGLPLGTVKTHIRRGLIKVREALEAQAAG | rule met |
| HMQPASPELNNQEKKVLQALPENEVIHIDELSDKIQIPVGELLTVLLSLEMKETVIQEPGKFFRRR | rule not met |
| HMPKLVGEVMQTLDALRREKGLSLLLVEQNARAALGVVDRVYVLERGRVVFEGSAKEAMEDQDVMEFYLG | rule met |

## Input # check: soluble fraction (log2) of HMPVGSIGERLKALRLKAGLTQEEVGQHVHISKQTLYKYENGIVTNIPADKIELLATIYSVTPAYIMGWA is greater than or equal to -0.3
## Output rule not met

## Input Hi team, for HMTSTEQEILIEHMVDRLPALRKKYGISQTELGEKIGLSRQTISAIERKTTPLTWTTMLAILMFFT , is the recorded soluble fraction (log2) at or above -0.3?
## Output rule not met

## Input Does the sequence HMIMPSDATEAKLLGVLGNEPLHVDEIRNQAELPIEKVSAALALMELKGMVRQVGGMNYVAVR have recorded soluble fraction (log2) that is -0.3 or more?
## Output rule met
